The origin of these recorded values is ChEMBL document CHEMBL5291721.

AC50, UniProt:P06401, per-entry values.
Sequence (P06401 whole entry): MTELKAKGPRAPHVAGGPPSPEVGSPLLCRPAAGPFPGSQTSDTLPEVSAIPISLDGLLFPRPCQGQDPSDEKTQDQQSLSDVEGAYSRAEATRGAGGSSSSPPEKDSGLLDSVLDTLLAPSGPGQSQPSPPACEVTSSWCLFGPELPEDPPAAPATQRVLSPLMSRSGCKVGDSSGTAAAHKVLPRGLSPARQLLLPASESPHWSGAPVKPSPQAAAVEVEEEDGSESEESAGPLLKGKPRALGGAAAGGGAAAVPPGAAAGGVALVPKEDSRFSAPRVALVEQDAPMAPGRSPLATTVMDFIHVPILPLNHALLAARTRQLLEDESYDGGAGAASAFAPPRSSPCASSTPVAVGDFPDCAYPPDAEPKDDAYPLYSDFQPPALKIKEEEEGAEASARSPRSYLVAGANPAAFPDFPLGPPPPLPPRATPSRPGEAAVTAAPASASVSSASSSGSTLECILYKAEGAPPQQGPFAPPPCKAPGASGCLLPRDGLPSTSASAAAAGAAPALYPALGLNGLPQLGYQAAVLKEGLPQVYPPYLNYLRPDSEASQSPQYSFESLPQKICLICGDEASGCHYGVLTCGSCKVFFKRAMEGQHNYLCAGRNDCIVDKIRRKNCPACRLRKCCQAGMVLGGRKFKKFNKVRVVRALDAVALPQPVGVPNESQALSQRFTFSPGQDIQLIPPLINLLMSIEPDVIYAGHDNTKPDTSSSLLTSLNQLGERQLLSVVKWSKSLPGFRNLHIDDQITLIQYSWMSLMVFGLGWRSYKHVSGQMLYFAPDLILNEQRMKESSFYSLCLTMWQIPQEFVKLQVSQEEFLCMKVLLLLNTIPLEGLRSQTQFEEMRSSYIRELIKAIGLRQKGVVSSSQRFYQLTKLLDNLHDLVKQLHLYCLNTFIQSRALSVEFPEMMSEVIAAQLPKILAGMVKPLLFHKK

Recorded AC50, per entry:
CCCCCCCC(=O)N[C@H](CN1CCCC1)[C@H](O)c1ccc2c(c1)OCCO2    > 30 µM
O=C1c2c(O)cccc2Cc2cccc(O)c21    > 30 µM

The reported value for C[n+]1ccccc1/C=N/O in terms of AC50 is > 30 µM

# AC50 (compound: CNC(=O)c1cc(Oc2ccc(NC(=O)Nc3ccc(Cl)c(C(F)(F)F)c3)c(F)c2)ccn1 ) is > 3 µM

compound CC1(C)O[C@@H]2[C@@H](CO[C@@]3(COS(N)(=O)=O)OC(C)(C)O[C@@H]23)O1 [TOPIRAMATE] , AC50 observed: > 30 µM

====

# measurementTarget: Beta-2 adrenergic receptor (Homo sapiens); further: assay procedure not described here
# Sequence (P07550 whole entry): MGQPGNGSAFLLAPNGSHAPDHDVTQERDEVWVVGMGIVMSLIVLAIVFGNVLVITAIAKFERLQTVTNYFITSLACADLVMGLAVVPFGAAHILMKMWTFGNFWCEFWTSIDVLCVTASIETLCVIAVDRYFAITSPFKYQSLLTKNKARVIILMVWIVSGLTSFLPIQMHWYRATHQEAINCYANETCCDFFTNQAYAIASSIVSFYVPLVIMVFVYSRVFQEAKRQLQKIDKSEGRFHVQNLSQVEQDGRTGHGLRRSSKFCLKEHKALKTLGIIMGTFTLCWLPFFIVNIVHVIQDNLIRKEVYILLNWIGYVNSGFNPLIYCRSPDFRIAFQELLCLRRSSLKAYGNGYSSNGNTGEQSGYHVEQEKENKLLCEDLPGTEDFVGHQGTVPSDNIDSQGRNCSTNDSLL
# Type: functional, cell-based
Here the recorded AC50 is given for each entry.

Examples from the recorded data:
O=C1Nc2ccc(Cl)cc2C(c2ccccc2)=NC1O (stereo not given)    > 30 µM
Oc1c(I)cc(Cl)c2cccnc12    > 10 µM
CC[C@@H](CO)NC(=O)[C@@H]1C=C2c3cccc4[nH]cc(c34)C[C@H]2N(C)C1    > 30 µM
CCCC[C@H](C)C[C@H](O)/C=C/[C@H]1[C@H](O)CC(=O)[C@@H]1CCCC/C=C/C(=O)O    > 30 µM

Let's switch to this molecule now.
AC50 value, target or system Beta-2 adrenergic receptor (Homo sapiens), for Cc1cnc(NC(=O)C2=C(O)c3ccccc3S(=O)(=O)N2C)s1 : > 30 µM

====

# measurementTarget: 5-hydroxytryptamine receptor 2B (Homo sapiens, UniProt P41595)
# Sequence (P41595 whole entry): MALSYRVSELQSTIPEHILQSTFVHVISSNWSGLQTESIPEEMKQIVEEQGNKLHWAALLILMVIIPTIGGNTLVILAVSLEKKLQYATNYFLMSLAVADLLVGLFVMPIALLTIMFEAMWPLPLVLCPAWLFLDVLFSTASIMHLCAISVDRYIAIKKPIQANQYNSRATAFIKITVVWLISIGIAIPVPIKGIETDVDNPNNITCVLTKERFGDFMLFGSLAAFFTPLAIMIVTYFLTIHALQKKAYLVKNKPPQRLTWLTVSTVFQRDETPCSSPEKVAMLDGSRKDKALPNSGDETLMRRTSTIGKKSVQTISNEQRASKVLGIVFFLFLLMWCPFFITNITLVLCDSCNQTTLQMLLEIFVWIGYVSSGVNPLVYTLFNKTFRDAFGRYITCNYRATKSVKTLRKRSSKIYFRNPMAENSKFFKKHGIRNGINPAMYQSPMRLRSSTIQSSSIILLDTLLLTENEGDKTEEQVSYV
# Format: functional, cell-based
A collection of compounds and their measured AC50

The examples below pair each entry with its known result.
O=c1oc2ccccc2c(O)c1Cc1c(O)c2ccccc2oc1=O    > 10 µM
COc1ccnc(C[S+]([O-])c2nc3ccc(OC(F)F)cc3[nH]2)c1OC (stereo not given)    > 10 µM
C#C[C@]1(O)CC[C@H]2[C@@H]3CCc4cc(OC)ccc4[C@H]3CC[C@@]21C    > 10 µM
CC(C)OC(=O)C(C(=O)OC(C)C)=C1SC=CS1 [MALOTILATE]    > 30 µM

Attention now turns to another entry.
# AC50 (compound: CCCCCCNC(=O)n1cc(F)c(=O)[nH]c1=O ) is > 30 µM

====

# measurementTarget: Alpha-2A adrenergic receptor (Homo sapiens, UniProt P08913); further: assay procedure not described here
# Sequence (P08913 whole entry): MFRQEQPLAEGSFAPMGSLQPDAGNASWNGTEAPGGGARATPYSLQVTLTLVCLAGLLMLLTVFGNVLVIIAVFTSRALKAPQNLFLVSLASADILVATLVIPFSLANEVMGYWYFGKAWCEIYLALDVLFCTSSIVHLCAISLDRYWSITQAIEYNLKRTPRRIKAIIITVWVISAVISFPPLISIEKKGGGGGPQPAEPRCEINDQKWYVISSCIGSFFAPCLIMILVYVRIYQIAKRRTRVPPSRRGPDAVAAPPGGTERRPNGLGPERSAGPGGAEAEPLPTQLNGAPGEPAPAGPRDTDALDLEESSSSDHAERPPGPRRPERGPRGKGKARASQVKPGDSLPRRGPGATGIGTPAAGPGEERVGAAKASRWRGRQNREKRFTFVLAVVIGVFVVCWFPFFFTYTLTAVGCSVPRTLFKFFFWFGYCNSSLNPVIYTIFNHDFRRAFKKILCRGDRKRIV
# Type: functional, cell-based
readoutName: AC50

In the examples that follow, each entry is paired with its recorded AC50.
COC1=C(OC)C(=O)C(CCCCCCCCCCO)=C(C)C1=O [IDEBENONE]    > 10 µM
CC[N+]1(C)CCCC(OC(=O)C(O)(c2ccccc2)c2ccccc2)C1 (centres undefined) [PIPENZOLATE]    > 30 µM
Oc1c(I)cc(Cl)c2cccnc12 [CLIOQUINOL]    > 30 µM
Nc1ccn([C@@H]2O[C@H](CO)[C@@H](O)C2(F)F)c(=O)n1 [GEMCITABINE]    > 10 µM
CS(=O)(=O)OCCCCOS(C)(=O)=O [BUSULFAN]    > 30 µM
CC(=N)N1CC[C@H](SC2=C(C(=O)O)N3C(=O)[C@H]([C@@H](C)O)[C@H]3C2)C1    > 300 µM
CC1(C)O[C@@H]2[C@@H](CO[C@@]3(COS(N)(=O)=O)OC(C)(C)O[C@@H]23)O1 [TOPIRAMATE]    > 10 µM
N#C[C@@H]1CCCN1C(=O)CNC12CC3CC(CC(O)(C3)C1)C2 [VILDAGLIPTIN]    > 30 µM
CCN(CC)CCOC(=O)c1ccc(N)cc1Cl [CHLOROPROCAINE]    > 30 µM
C#Cc1cccc(Nc2ncnc3cc(OCCOC)c(OCCOC)cc23)c1 [ERLOTINIB]    > 30 µM

What the record says about C[C@@H]1CCC[C@H](C)N1NC(=O)c1ccc(Cl)c(S(N)(=O)=O)c1 [CLOPAMIDE] : AC50 is > 30 µM

Field AC50 (entry CN1c2ccccc2C(NCCCCCCC(=O)O)c2ccc(Cl)cc2S1(=O)=O (centres undefined) [TIANEPTINE] ) reads > 30 µM

The reported AC50 of the compound CN1[C@@H]2CC[C@H]1C[C@@H](OC(=O)c1c[nH]c3ccccc13)C2 [TROPISETRON] was > 30 µM

Form: compound = CC(=O)/N=c1/sc(S(N)(=O)=O)nn1C [METHAZOLAMIDE] ; AC50 = > 10 µM

====

# measurementTarget: Voltage-gated inwardly rectifying potassium channel KCNH2 (Homo sapiens, UniProt Q12809); further: assay procedure not described here
# Sequence (Q12809 whole entry): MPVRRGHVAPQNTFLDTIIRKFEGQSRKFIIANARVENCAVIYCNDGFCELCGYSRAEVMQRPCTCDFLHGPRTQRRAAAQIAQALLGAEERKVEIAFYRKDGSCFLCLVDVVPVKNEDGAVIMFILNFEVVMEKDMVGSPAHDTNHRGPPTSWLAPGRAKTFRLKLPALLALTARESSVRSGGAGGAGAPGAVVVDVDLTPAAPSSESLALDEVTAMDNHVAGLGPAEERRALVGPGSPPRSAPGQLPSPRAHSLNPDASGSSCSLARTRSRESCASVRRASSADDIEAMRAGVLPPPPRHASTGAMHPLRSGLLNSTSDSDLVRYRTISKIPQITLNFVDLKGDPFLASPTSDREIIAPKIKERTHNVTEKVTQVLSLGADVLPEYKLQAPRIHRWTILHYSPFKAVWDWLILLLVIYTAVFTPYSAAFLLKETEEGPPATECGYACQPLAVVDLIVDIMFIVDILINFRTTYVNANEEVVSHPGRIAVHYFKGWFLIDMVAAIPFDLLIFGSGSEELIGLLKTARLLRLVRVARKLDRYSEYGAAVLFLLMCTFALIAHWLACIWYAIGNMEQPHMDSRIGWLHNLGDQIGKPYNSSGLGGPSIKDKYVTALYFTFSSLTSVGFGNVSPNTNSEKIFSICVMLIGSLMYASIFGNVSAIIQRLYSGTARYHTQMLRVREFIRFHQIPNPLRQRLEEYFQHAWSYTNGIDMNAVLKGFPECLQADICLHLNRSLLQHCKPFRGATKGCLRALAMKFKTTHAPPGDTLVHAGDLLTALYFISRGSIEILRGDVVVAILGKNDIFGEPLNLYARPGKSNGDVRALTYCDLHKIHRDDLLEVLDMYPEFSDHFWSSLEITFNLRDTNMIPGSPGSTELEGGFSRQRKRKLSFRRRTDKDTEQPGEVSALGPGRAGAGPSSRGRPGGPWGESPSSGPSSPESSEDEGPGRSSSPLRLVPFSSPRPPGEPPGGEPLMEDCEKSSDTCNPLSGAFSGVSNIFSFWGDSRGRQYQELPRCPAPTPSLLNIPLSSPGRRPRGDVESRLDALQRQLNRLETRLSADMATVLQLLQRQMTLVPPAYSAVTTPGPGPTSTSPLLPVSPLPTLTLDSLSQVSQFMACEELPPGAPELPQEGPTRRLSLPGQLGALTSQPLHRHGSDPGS
# Format: functional
# statedConditions: read-out: AC50; further: assay procedure not described here
readoutName: AC50 (µM)
Note: unit µM is implicit; provide only the numeric part.

Looking up CN(c1nccc(=O)[nH]1)C1CCN(c2nc3ccccc3n2Cc2ccc(F)cc2)CC1 , I found its AC50 recorded as 3.34

Kindly note the recorded AC50 for CN1C[C@H](C(=O)N[C@]2(C)O[C@@]3(O)[C@@H]4CCCN4C(=O)[C@H](Cc4ccccc4)N3C2=O)C[C@@H]2c3cccc4[nH]cc(c34)C[C@H]21 [DIHYDROERGOTAMINE] , which is 10

====

Property: AC50; scope: individual compounds
# measurementTarget: Adenosine receptor A3 (Homo sapiens); further: assay procedure not described here
# Sequence (P0DMS8 whole entry): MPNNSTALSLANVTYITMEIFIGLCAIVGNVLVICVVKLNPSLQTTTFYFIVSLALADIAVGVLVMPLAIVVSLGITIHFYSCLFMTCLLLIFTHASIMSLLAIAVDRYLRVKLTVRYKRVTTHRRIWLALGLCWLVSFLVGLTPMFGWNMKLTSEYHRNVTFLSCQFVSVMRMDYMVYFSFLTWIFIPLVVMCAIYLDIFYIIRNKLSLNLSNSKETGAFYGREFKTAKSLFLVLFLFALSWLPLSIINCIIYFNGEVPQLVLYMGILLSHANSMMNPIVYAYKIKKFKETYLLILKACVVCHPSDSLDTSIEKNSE
Write the value in µM as a bare number.

C#C[C@]1(O)CC[C@H]2[C@@H]3CCC4=CC(=O)CCC4=C3C=C[C@@]21CC    22
[H]/N=C(\N/C(=N/[H])NCCCCCCNC(=N)NC(=N)Nc1ccc(Cl)cc1)Nc1ccc(Cl)cc1    4.1

// recorded AC50 for CC#CCn1c(N2CCC[C@@H](N)C2)nc2c1c(=O)n(Cc1nc(C)c3ccccc3n1)c(=O)n2C : 26.2

GET /value?item= Cc1ccc2c(-c3ccccc3)nc(=O)n(C(C)C)c2c1 &field=AC50 returns 23

====

# measurementTarget: 5-hydroxytryptamine receptor 2B (Homo sapiens, UniProt P41595)
# Type: functional, cell-based
Entries and their AC50

Recorded result, CC(=O)Oc1ccccc1C(=O)Nc1ncc([N+](=O)[O-])s1 [NITAZOXANIDE] , AC50: 17 µM

Entry under test: CCCCC[C@H](O)/C=C/[C@H]1[C@H](O)CC(=O)[C@@H]1C/C=C\CCCC(=O)O . Its AC50 was > 30 µM

The measured AC50 associated with CN(C)c1cc(CNCC(C)(C)C)c(O)c2c1C[C@H]1C[C@H]3[C@H](N(C)C)C(O)=C(C(N)=O)C(=O)[C@@]3(O)C(O)=C1C2=O reads > 30 µM

# molecule NC(=O)CCC/N=C(\c1ccc(Cl)cc1)c1cc(F)ccc1O [PROGABIDE] ; its AC50 = > 10 µM

Kindly note the recorded AC50 for CC(=N)N1CC[C@H](SC2=C(C(=O)O)N3C(=O)[C@H]([C@@H](C)O)[C@H]3C2)C1 , which is > 300 µM

// COc1ccnc(C[S+]([O-])c2nc3ccc(OC(F)F)cc3[nH]2)c1OC (stereo not drawn) : AC50 value = > 10 µM

Looking up COc1ccc(Cc2nccc3cc(OC)c(OC)cc23)cc1OC , I see its AC50 listed as > 30 µM

====

# measurementTarget: UniProt:Q12809
# Assay type: functional
# statedConditions: read-out: AC50
// AC50 lookup, one value per entry

Cc1cccc(N(C)C(=S)Oc2ccc3ccccc3c2)c1 [TOLNAFTATE]    > 30 µM
CC(=O)O[C@H]1C[C@H](O[C@H]2[C@@H](O)C[C@H](O[C@H]3[C@@H](O)C[C@H](O[C@H]4CC[C@@]5(C)[C@H](CC[C@@H]6[C@@H]5C[C@@H](O)[C@]5(C)[C@@H](C7=CC(=O)OC7)CC[C@]65O)C4)O[C@@H]3C)O[C@@H]2C)O[C@H](C)[C@H]1O[C@@H]1O[C@H](CO)[C@@H](O)[C@H](O)[C@H]1O [LANATOSIDE C]    > 30 µM
C[C@]12CC[C@@H]3c4ccc(O)cc4CC[C@H]3[C@@H]1CC[C@@H]2OC(=O)CCC1CCCC1 [ESTRADIOL CYPIONATE]    > 30 µM
C[C@@H]1C[C@H]2[C@@H]3CCC4=CC(=O)C=C[C@]4(C)C3=CC[C@]2(C)[C@H]1C(=O)CN1CCN(c2cc(N3CCCC3)nc(N3CCCC3)n2)CC1    1.9 µM
NCCc1ccc(O)cc1    > 30 µM

Please find the next compound below.
Per the record, O=C(CCCN1CCC(n2c(O)nc3ccccc32)CC1)c1ccc(F)cc1 has AC50 of 0.11 µM

====

A collection of molecules and their measured AC50
# measurementTarget: Histamine H3 receptor (Homo sapiens); further: assay procedure not described here
# Sequence (Q9Y5N1 whole entry): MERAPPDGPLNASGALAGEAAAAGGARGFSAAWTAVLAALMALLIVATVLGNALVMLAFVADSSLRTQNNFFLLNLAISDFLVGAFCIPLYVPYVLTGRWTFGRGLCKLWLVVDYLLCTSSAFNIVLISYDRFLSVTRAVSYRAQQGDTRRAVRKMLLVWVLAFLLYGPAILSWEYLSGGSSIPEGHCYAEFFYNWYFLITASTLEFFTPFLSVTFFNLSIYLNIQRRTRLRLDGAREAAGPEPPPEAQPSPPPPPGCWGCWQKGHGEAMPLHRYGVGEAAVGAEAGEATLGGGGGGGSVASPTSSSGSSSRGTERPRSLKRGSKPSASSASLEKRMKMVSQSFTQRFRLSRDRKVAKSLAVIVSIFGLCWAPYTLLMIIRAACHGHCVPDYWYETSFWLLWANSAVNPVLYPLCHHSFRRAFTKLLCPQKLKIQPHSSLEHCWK

Nc1nc2c(c(=O)[nH]1)N(C=O)C(CNc1ccc(C(=O)N[C@@H](CCC(=O)O)C(=O)O)cc1)CN2 (stereo partly drawn) [LEUCOVORIN]    > 30 µM
CN(c1nccc(=O)[nH]1)C1CCN(c2nc3ccccc3n2Cc2ccc(F)cc2)CC1 [MIZOLASTINE]    > 30 µM
CC(=O)c1ccc2c(c1)N(CCCN1CCC(CCO)CC1)c1ccccc1S2 [PIPERACETAZINE]    > 30 µM
O=C(O)c1ccccc1Nc1cccc(C(F)(F)F)c1 [FLUFENAMIC ACID]    > 10 µM
C[C@]1(COc2ccc(N3CCC(Oc4ccc(OC(F)(F)F)cc4)CC3)cc2)Cn2cc([N+](=O)[O-])nc2O1    > 10 µM
CN1c2ccccc2C(NCCCCCCC(=O)O)c2ccc(Cl)cc2S1(=O)=O (stereo not drawn) [TIANEPTINE]    > 30 µM
CC1(C)O[C@@H]2C[C@H]3[C@@H]4C[C@H](F)C5=CC(=O)C=C[C@]5(C)[C@H]4[C@@H](O)C[C@]3(C)[C@]2(C(=O)CO)O1 [FLUNISOLIDE]    > 30 µM
CC(CCc1ccccc1)NC(C)C(O)c1ccc(O)cc1 (stereo not drawn) [NYLIDRIN]    > 10 µM

The molecule NC(=O)CCC/N=C(\c1ccc(Cl)cc1)c1cc(F)ccc1O [PROGABIDE] , tested on Histamine H3 receptor (Homo sapiens), showed AC50 of > 10 µM
